# credit: paper PMC10734773

molecular target: Tyrosinase (tyrosinase mushroom); construct: gene PPO3; native mushroom tyrosinase preparation, isoenzyme mixture not resolved; only 'mushroom' given; experiment: spectrophotometric dopachrome assay, […] nm; format: biochemical, Agaricus bisporus; details: L-DOPA, pH 6.8, 37 °C, 10 min preincubation
metric.name: Tyrosinase activity (IC50 mM/mL)
# value in mM/mL; strip the unit string

• COc1cc(C=NNC(=O)c2ccc([N+](=O)[O-])cc2)cc(OC)c1O = 18.22
• COc1cc(C=NNC(=O)c2ccccc2)cc(OC)c1O = 88.73

stdin: Return Tyrosinase activity (IC50 mM/mL) for the following molecule: `COc1cc(C=NNC(=O)c2ccccc2OC(F)(F)F)cc(OC)c1O`
stdout: 29.78

---

target: Tyrosinase (tyrosinase mushroom); construct: gene PPO3; native mushroom tyrosinase preparation, isoenzyme mixture not resolved; only 'mushroom' given; test: spectrophotometric dopachrome assay, […] nm; type: biochemical, Agaricus bisporus; conditions: L-DOPA, pH 6.8, 37 °C, 10 min preincubation
Recorded Tyrosinase activity (IC50 mM/mL) for the following molecules
Give the quantity in mM/mL, number only.

Illustrative cases are given below, each with its answer.
* COc1cc(C=NNC(=O)c2ccc(OC(F)(F)F)cc2)cc(OC)c1O [7m] | 36.62
* COc1cc(C=NNC(=O)c2ccc(Cl)cc2)cc(OC)c1O [7c] | 70.91
* COc1ccc(C(=O)NN=Cc2cc(OC)c(O)c(OC)c2)cc1 [7e] | 10.15
* COc1cc(C=NNC(=O)c2ccc(Br)cc2)cc(OC)c1O [7b] | 82.08

stdin: Using the record for COc1cc(C=NNC(=O)c2cccc(OC(F)(F)F)c2)cc(OC)c1O [7l] , state its measured Tyrosinase activity (IC50 mM/mL).
stdout: 24.30

---

Each record here notes measured Anticholinesterase Activity / AChE assay (IC50 μM/mL) (IC50 μM/mL).
biological target: AChE (acetylcholinesterase from eel) (Electrophorus electricus); details: acetylthiocholine-type substrate (AcI [sic]), DTNB, pH 8.0, 25 °C, 15 min preincubation
Sequence (O42275 24-633): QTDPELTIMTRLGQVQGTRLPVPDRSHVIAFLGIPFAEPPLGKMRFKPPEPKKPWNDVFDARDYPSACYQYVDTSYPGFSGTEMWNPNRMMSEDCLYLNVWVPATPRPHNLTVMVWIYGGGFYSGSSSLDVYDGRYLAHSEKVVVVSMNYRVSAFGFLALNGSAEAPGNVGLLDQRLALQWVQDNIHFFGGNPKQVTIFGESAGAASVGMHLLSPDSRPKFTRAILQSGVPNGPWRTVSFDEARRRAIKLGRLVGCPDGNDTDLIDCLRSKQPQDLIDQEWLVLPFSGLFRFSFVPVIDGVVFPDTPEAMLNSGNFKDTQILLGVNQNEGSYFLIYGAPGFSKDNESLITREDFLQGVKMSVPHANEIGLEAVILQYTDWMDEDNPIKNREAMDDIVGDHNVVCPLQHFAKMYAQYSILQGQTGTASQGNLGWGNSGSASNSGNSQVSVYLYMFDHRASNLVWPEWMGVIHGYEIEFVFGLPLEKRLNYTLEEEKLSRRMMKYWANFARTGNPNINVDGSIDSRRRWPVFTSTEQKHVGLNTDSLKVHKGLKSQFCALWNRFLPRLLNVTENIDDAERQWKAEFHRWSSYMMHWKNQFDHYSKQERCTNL
Return type: number; implicit unit μM/mL.

stdin: Please indicate Anticholinesterase Activity / AChE assay (IC50 μM/mL) (IC50 μM/mL) recorded for `COc1cc(C=NNC(=O)c2ccccc2C(F)(F)F)cc(OC)c1O`
stdout: 70.13

stdin: Provide only the value of recorded Anticholinesterase Activity / AChE assay (IC50 μM/mL) (IC50 μM/mL) for `COc1cc(C=NNC(=O)c2ccccc2)cc(OC)c1O`
stdout: 101.04

stdin: Output Anticholinesterase Activity / AChE assay (IC50 μM/mL) (IC50 μM/mL) of `COc1cc(C=NNC(=O)c2ccc(OC(F)(F)F)cc2)cc(OC)c1O`
stdout: 62.04

stdin: Output measured Anticholinesterase Activity / AChE assay (IC50 μM/mL) (IC50 μM/mL) for this item: `COc1cc(C=NNC(=O)c2cccc(C(F)(F)F)c2)cc(OC)c1O`
stdout: 73.75

---

target: BChE (butyrylcholinesterase from horse serum) (Equus caballus); construct: native enzyme preparation from horse serum; assay: Ellman assay, […] nm; type: biochemical; conditions: butyrylthiocholine chloride, DTNB, pH 8.0, room conditions, 15 min preincubation
Please mark satisfied if the recorded Anticholinesterase Activity / BChE assay (IC50 μM/mL) is equal to or greater than 80 μM/mL, and not satisfied if it falls below.

For orientation, consider the following solved cases.
• COc1cc(C=NNC(=O)c2ccc([N+](=O)[O-])cc2)cc(OC)c1O = not satisfied
• COc1cc(C=NNC(=O)c2ccc(Br)cc2)cc(OC)c1O = satisfied
• COc1cc(C=NNC(=O)c2ccccc2C(F)(F)F)cc(OC)c1O = satisfied
• COc1cc(C=NNC(=O)c2ccc(OC(F)(F)F)cc2)cc(OC)c1O = not satisfied
• COc1cc(C=NNC(=O)c2ccc(C(F)(F)F)cc2)cc(OC)c1O = not satisfied

stdin: Evaluate `COc1cc(C=NNC(=O)c2cccc(C(F)(F)F)c2)cc(OC)c1O` : Anticholinesterase Activity / BChE assay (IC50 μM/mL) at minimum 80 μM/mL?
stdout: satisfied

stdin: Does `COc1ccc(C(=O)NN=Cc2cc(OC)c(O)c(OC)c2)cc1` have a reported Anticholinesterase Activity / BChE assay (IC50 μM/mL) of at least 80 μM/mL?
stdout: satisfied

---

target: BChE (butyrylcholinesterase from horse serum) (Equus caballus, UniProt P81908); construct: native enzyme preparation from horse serum; assay: Ellman assay, […] nm; type: biochemical; conditions: butyrylthiocholine chloride, DTNB, pH 8.0, room conditions, 15 min preincubation
Sequence (P81908 whole entry): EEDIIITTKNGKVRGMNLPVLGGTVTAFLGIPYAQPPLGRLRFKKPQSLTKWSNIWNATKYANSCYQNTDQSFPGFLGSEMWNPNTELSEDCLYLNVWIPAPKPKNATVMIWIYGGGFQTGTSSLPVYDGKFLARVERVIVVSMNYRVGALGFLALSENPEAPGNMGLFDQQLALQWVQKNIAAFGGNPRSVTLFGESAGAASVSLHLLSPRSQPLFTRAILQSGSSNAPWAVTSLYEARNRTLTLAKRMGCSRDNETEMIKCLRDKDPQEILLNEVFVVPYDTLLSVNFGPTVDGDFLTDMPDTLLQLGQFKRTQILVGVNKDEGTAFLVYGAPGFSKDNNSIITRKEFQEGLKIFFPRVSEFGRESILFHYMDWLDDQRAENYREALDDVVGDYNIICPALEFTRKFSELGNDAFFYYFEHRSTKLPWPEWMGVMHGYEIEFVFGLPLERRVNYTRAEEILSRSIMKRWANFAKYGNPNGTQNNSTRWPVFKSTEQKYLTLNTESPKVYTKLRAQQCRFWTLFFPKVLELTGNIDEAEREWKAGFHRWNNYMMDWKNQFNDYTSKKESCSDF
Friendly reminder: Anticholinesterase Activity / BChE assay (IC50 μM/mL) below 100 μM/mL is 1, at or above is -1.

Check out these entries, answers already filled in.
• COc1cc(C=NNC(=O)c2ccc(F)cc2)cc(OC)c1O = -1
• COc1cc(C=NNC(=O)c2ccccc2)cc(OC)c1O = -1
• COc1cc(C=NNC(=O)c2ccccc2OC(F)(F)F)cc(OC)c1O = 1

stdin: Is Anticholinesterase Activity / BChE assay (IC50 μM/mL) of `COc1cc(C=NNC(=O)c2cc(C(F)(F)F)cc(C(F)(F)F)c2)cc(OC)c1O` strictly below 100 μM/mL?
stdout: 1

---

Quick reference: Anticholinesterase Activity / AChE assay (IC50 μM/mL) (IC50 μM/mL) of the listed items.
target: UniProt:O42275; conditions: acetylthiocholine-type substrate (AcI [sic]), DTNB, pH 8.0, 25 °C, 15 min preincubation
Report the figure in μM/mL without appending any unit label.

Past entries and their recorded results:
• COc1cc(C=NNC(=O)c2ccc(F)cc2)cc(OC)c1O [7d] = 88.37
• COc1cc(C=NNC(=O)c2ccc([N+](=O)[O-])cc2)cc(OC)c1O [7f] = 40.07
• COc1cc(C=NNC(=O)c2ccc(Br)cc2)cc(OC)c1O [7b] = 93.00

stdin: Specify Anticholinesterase Activity / AChE assay (IC50 μM/mL) (IC50 μM/mL) for COc1cc(C=NNC(=O)c2ccc(Cl)cc2)cc(OC)c1O [7c] , system UniProt:O42275.
stdout: 82.14

stdin: Name the value of Anticholinesterase Activity / AChE assay (IC50 μM/mL) (IC50 μM/mL) reported for COc1cc(C=NNC(=O)c2ccccc2OC(F)(F)F)cc(OC)c1O [7k] when tested on UniProt:O42275.
stdout: 59.31

stdin: Look up and report Anticholinesterase Activity / AChE assay (IC50 μM/mL) (IC50 μM/mL), with UniProt:O42275 as system, for COc1ccc(C(=O)NN=Cc2cc(OC)c(O)c(OC)c2)cc1 [7e]
stdout: 75.01

stdin: Name the recorded Anticholinesterase Activity / AChE assay (IC50 μM/mL) (IC50 μM/mL) of COc1cc(C=NNC(=O)c2cc(C(F)(F)F)cc(C(F)(F)F)c2)cc(OC)c1O [7j] , assay system UniProt:O42275.
stdout: 44.83

stdin: // fetch Anticholinesterase Activity / AChE assay (IC50 μM/mL) (IC50 μM/mL) for COc1cc(C=NNC(=O)c2cccc(OC(F)(F)F)c2)cc(OC)c1O [7l] ; system: UniProt:O42275
stdout: 68.09

stdin: Send back UniProt:O42275 Anticholinesterase Activity / AChE assay (IC50 μM/mL) (IC50 μM/mL) of COc1cc(C=NNC(=O)c2ccc(C(F)(F)F)cc2)cc(OC)c1O [7i] only.
stdout: 51.08
